- experiment_summary: Selectivity index, ratio of IC50 for African green monkey Vero cells to MIC for Mycobacterium tuberculosis H37Rv ATCC 27294
- Format: toxicity
- condition_info: read-out: Selectivity Index
Rule: selectivity ratio below 200 gives satisfied, anything at or above gives not satisfied.

>  <molecular_string>
N#Cc1ccc(Cn2cc(CN3c4ccc(/C=N/NC(=O)c5cnccn5)cc4Sc4ccc(C(F)(F)F)cc43)nn2)cc1

>  <class>
satisfied

$$$$
>  <molecular_string>
N#Cc1ccc(Cn2cc(CN3c4ccc(/C=N/NC(=O)c5ccncc5)cc4Sc4ccc(C(F)(F)F)cc43)nn2)cc1

>  <class>
not satisfied

$$$$
>  <molecular_string>
N#Cc1ccc(Cn2cc(CN3c4ccccc4Sc4cc(/C=N/NC(=O)c5ccccc5)ccc43)nn2)cc1

>  <class>
satisfied

$$$$
>  <molecular_string>
N#Cc1ccc(Cn2cc(CN3c4ccc(/C=N/NC(=O)c5ccc(F)cc5)cc4Sc4ccc(C(F)(F)F)cc43)nn2)cc1

>  <class>
satisfied

$$$$
>  <molecular_string>
N#Cc1ccc(Cn2cc(CN3c4ccccc4Sc4cc(/C=N/NC(=O)c5ccc([N+](=O)[O-])cc5)ccc43)nn2)cc1

>  <class>
satisfied

$$$$
>  <molecular_string>
N#Cc1ccc(Cn2cc(CN3c4ccccc4Sc4ccccc43)nn2)cc1

>  <class>
satisfied

$$$$
>  <molecular_string>
Cc1ccc(C(=O)N/N=C/c2ccc3c(c2)Sc2ccc(C(F)(F)F)cc2N3Cc2cn(Cc3ccc(C#N)cc3)nn2)cc1

>  <class>
not satisfied

$$$$
>  <molecular_string>
N#Cc1ccc(Cn2cc(CN3c4ccccc4Sc4cc(/C=N/NC(=O)c5ccc(F)cc5)ccc43)nn2)cc1

>  <class>
satisfied

$$$$

Problem: Lab note: selectivity ratio threshold 200. Does this compound come in strictly under it? Cc1ccc(C(=O)N/N=C/c2ccc3c(c2)Sc2ccccc2N3Cc2cn(Cc3ccc(C#N)cc3)nn2)cc1
Solution: satisfied

Problem: Lab note: selectivity ratio threshold 200. Does this compound come in strictly under it? N#Cc1ccc(Cn2cc(CN3c4ccccc4Sc4ccc(C(F)(F)F)cc43)nn2)cc1
Solution: not satisfied

Problem: Lab note: selectivity ratio threshold 200. Does this compound come in strictly under it? N#Cc1ccc(Cn2cc(CN3c4ccc(/C=N/NC(=O)c5ccc([N+](=O)[O-])cc5)cc4Sc4ccc(C(F)(F)F)cc43)nn2)cc1
Solution: satisfied

Problem: Lab note: selectivity ratio threshold 200. Does this compound come in strictly under it? O=[N+]([O-])c1ccc(Cn2cc(CN3c4ccccc4Sc4ccccc43)nn2)cc1
Solution: satisfied

Problem: Lab note: selectivity ratio threshold 200. Does this compound come in strictly under it? Fc1ccccc1Cn1cc(CN2c3ccccc3Sc3ccccc32)nn1
Solution: not satisfied

Problem: Lab note: selectivity ratio threshold 200. Does this compound come in strictly under it? N#Cc1ccc(Cn2cc(CN3c4ccccc4Sc4cc(/C=N/NC(=O)c5cccnc5)ccc43)nn2)cc1
Solution: satisfied

Problem: Lab note: selectivity ratio threshold 200. Does this compound come in strictly under it? Fc1ccc(Cn2cc(CN3c4ccccc4Sc4ccccc43)nn2)cc1
Solution: not satisfied

Problem: Lab note: selectivity ratio threshold 200. Does this compound come in strictly under it? N#Cc1ccc(Cn2cc(CN3c4ccc(/C=N/NC(=O)c5ccccc5)cc4Sc4ccc(C(F)(F)F)cc43)nn2)cc1
Solution: satisfied

Problem: Lab note: selectivity ratio threshold 200. Does this compound come in strictly under it? N#Cc1ccc(Cn2cc(CN3c4ccccc4Sc4cc(/C=N/NC(=O)c5ccncc5)ccc43)nn2)cc1
Solution: not satisfied

Problem: Lab note: selectivity ratio threshold 200. Does this compound come in strictly under it? COc1ccc(Cn2cc(CN3c4ccccc4Sc4ccccc43)nn2)cc1
Solution: not satisfied

Problem: Lab note: selectivity ratio threshold 200. Does this compound come in strictly under it? N#Cc1ccc(Cn2cc(CN3c4ccc(/C=N/NC(=O)c5cccnc5)cc4Sc4ccc(C(F)(F)F)cc43)nn2)cc1
Solution: satisfied
